- target entity: Dual specificity tyrosine-phosphorylation-regulated kinase 1B (Homo sapiens)
- Sequence (Q9Y463 whole entry): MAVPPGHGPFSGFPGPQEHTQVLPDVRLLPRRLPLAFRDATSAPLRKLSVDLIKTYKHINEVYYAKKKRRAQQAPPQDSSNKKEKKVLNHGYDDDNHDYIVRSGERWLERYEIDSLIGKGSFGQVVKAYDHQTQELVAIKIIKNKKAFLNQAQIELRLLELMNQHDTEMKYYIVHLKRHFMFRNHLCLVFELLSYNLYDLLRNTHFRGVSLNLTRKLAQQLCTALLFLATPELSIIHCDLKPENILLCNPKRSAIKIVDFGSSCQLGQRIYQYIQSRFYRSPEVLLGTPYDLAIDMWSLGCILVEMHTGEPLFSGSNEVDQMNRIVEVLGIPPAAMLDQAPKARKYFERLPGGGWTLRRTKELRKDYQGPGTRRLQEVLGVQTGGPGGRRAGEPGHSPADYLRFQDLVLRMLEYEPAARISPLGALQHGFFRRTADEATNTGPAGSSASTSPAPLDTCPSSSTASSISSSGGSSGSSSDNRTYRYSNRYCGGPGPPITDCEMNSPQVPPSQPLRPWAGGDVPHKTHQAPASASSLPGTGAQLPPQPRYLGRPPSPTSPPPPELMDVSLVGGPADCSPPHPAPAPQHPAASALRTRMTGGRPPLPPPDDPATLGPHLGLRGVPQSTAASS
readout label: pIC50
Quick note: pIC50 values are minus log10 of concentrations in mol/L.

smiles str | recorded measurement
CCSC1=N/C(=C\c2ccc3c(c2)OCO3)C(=O)N1 | 7.14
CCNC1=N/C(=C\c2ccc3c(c2)OCO3)C(=O)N1 | 6.32
O=C1NC(N2CCOCC2)=N/C1=C\c1ccc2c(c1)OCO2 | 5.77

Log: Dual specificity tyrosine-phosphorylation-regulated kinase 1B (Homo sapiens), molecule `O=C1NC(Nc2ccccc2)=N/C1=C\c1ccc2c(c1)CCO2` , pIC50 = 7.06

Log: Dual specificity tyrosine-phosphorylation-regulated kinase 1B (Homo sapiens), molecule `CCCSC1=N/C(=C\c2ccc3c(c2)OCO3)C(=O)N1C` , pIC50 = 6.21

Log: Dual specificity tyrosine-phosphorylation-regulated kinase 1B (Homo sapiens), molecule `O=C1N=C(Nc2ccccc2)S/C1=C\c1ccc2c(c1)OCO2` , pIC50 = 6.21

Log: Dual specificity tyrosine-phosphorylation-regulated kinase 1B (Homo sapiens), molecule `O=C1NC(Nc2ccccc2)=N/C1=C\c1ccc2c(c1)OCCO2` , pIC50 = 6.60

Log: Dual specificity tyrosine-phosphorylation-regulated kinase 1B (Homo sapiens), molecule `O=C1NC(Nc2ccc(N3CCNCC3)cc2)=N/C1=C\c1ccc2c(c1)OC=CO2` , pIC50 = 5.85

Log: Dual specificity tyrosine-phosphorylation-regulated kinase 1B (Homo sapiens), molecule `COc1cc(/C=C2\N=C(Nc3ccc(N4CCNCC4)cc3)NC2=O)ccc1O` , pIC50 = 5.66

Log: Dual specificity tyrosine-phosphorylation-regulated kinase 1B (Homo sapiens), molecule `CCCNC1=N/C(=C\c2ccc3c(c2)OCO3)C(=O)N1` , pIC50 = 6.51

====

- target entity: Dual specificity protein kinase CLK2 (Mus musculus, UniProt O35491)
- Sequence (O35491 whole entry, the tested form may be a part): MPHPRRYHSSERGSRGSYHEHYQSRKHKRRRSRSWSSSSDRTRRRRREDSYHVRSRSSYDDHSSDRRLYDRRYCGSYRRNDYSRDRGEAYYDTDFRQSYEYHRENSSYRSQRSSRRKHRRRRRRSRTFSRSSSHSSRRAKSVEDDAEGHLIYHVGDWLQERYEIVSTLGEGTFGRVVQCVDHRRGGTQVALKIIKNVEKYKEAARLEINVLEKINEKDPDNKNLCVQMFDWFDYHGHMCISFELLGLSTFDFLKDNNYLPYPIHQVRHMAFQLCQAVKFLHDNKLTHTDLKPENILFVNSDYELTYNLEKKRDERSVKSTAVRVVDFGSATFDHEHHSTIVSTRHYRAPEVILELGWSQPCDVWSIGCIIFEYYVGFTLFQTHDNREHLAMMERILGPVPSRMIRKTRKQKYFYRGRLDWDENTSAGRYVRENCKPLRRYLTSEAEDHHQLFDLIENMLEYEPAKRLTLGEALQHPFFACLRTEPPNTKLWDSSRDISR
- protocol text: Inhibition of mouse recombinant GST-fused CLK2 expressed in Escherichia coli using GRSRSRSRSRSR peptide as substrate incubated for 30 mins in presence of ATP by scintillation counting method
Measured IC50, listed per entry for reference.
Quick note: give the figure in nM, leave out the unit.

smiles str | readout label | result unit | recorded measurement
O=C1NC(Nc2cccc(F)c2)=N/C1=C\c1ccc2c(c1)OCO2 | IC50 | nM | 130

Item: `O=C1NC(Nc2ccccn2)=N/C1=C\c1ccc2c(c1)OCO2` | IC50: 220

Item: `CN1CCN(c2ccc(NC3=N/C(=C\c4ccc5c(c4)OCO5)C(=O)N3)cc2)CC1` | IC50: 35

Item: `CCCNC1=N/C(=C\c2ccc3c(c2)OCO3)C(=O)N1` | IC50: 550

Item: `O=C1NC(N2CCOCC2)=N/C1=C\c1ccc2c(c1)OCO2` | IC50: 1500

Item: `COc1ccc(NC2=N/C(=C\c3ccc4c(c3)OCO4)C(=O)N2)cc1` | IC50: 7500

====

- target entity: UniProt:O35493
- Sequence (O35493 whole entry, the tested form may be a part): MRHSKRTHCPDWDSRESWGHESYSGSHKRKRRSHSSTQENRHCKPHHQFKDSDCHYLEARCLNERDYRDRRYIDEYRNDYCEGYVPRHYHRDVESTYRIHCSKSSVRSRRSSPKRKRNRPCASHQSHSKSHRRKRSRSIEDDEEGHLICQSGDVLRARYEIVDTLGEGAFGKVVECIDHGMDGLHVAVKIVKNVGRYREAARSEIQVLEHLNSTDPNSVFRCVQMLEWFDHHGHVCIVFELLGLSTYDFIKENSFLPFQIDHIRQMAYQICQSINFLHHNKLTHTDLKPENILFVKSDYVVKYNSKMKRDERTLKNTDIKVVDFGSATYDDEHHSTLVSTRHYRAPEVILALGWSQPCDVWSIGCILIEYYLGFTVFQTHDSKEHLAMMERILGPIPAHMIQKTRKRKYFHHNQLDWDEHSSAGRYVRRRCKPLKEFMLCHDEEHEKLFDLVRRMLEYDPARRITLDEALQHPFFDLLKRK
- protocol text: Inhibition of GST-fused mouse recombinant CLK4 expressed in Escherichia coli using GRSRSRSRSRSR peptide as substrate incubated for 30 mins in presence of ATP by scintillation counting method
readout label: pIC50
Quick note: pIC50 values are minus log10 of concentrations in mol/L.

smiles str | pIC50
CCCNC1=N/C(=C\c2ccc3c(c2)OCO3)C(=O)N1C | 6.92
COc1ccc(NC2=N/C(=C\c3ccc4c(c3)OCO4)C(=O)N2)cc1 | 6.89
COc1cc(/C=C2\N=C(Nc3ccc(N4CCCCC4)cc3)NC2=O)ccc1O | 5.92
Cc1ccc(NC2=N/C(=C\c3ccc4c(c3)OCO4)C(=O)N2)cc1C | 6.80

Item: `O=C1NC(Nc2ccc(N3CCCCC3)cc2)=N/C1=C\c1ccc2c(c1)OCO2` | pIC50: 5.82

Item: `CNC1=N/C(=C\c2ccc3c(c2)OCO3)C(=O)N1` | pIC50: 7.03

Item: `O=C1NC(Nc2ccccc2)=N/C1=C\c1ccc2c(c1)OCCO2` | pIC50: 6.85

Item: `Cc1ccc(NC2=N/C(=C\c3ccc4c(c3)OCO4)C(=O)N2)c(C)c1` | pIC50: 6.85
